- ASSAY_DETAILS: Clearance in rat
- Assay type: ADME, organism-based
- CONDITION_INFO: in vivo
ENDPOINT_NAME: clearance (mL/min/kg)
Just the number please, in mL/min/kg, no unit attached.

Task: Entry CC#CCn1c(N2CCC[C@@H](N)C2)nc2cnn(Cc3nc(C)c4ccccc4n3)c(=O)c21 has what clearance?
Output: 56

----------
- SYSTEM: Muscarinic acetylcholine receptor M1 (Homo sapiens)
- ASSAY_DETAILS: Displacement of [N-methyl-3H]scopolamine from human recombinant muscarinic receptor M1 expressed in CHO cell membrane
ENDPOINT_NAME: IC50 (µM)
Just the number please, in µM, no unit attached.

Known IC50 results, listed for orientation:
CC#CCn1c(N2CCNCC2)nc2cnn(Cc3nc(C)c4ccccc4n3)c(=O)c21: 2.8
CC#CCn1c(N2CCCNCC2)nc2cnn(Cc3nc(C)c4ccccc4n3)c(=O)c21: 0.954
CC#CCn1c(N2CCCC(N)C2)nc2cnn(CC3=Nc4ccccc4Oc4ccccc43)c(=O)c21 (centres undefined): 5.61

Field: next compound
Task: Entry CC#CCn1c(N2CCCC(N)C2)nc2cnn(Cc3ccc(C#N)c4ccccc34)c(=O)c21 (centres undefined) has what IC50?
Output: 0.862

----------
- ASSAY_DETAILS: Metabolic stability in human liver cytosol assessed as half life
- Assay type: ADME, tissue-based
ENDPOINT_NAME: half-life

Task: Entry CC#CCn1c(N2CCC[C@@H](N)C2)nc2cnn(Cc3nc(C)c4ccccc4n3)c(=O)c21 has what half-life?
Output: > 1.5 h

----------
- ASSAY_DETAILS: Volume of distribution at steady state in rat
- Format: ADME, organism-based
- CONDITION_INFO: in vivo, read-out: Vdss
ENDPOINT_NAME: Vd
Reply with the number and its unit after it.

Task: Entry CC#CCn1c(N2CCC[C@@H](N)C2)nc2cnn(Cc3nc(C)c4ccccc4n3)c(=O)c21 has what Vd?
Output: 40 L/kg

----------
- SYSTEM: UniProt P11229
- ASSAY_DETAILS: Displacement of [N-methyl-3H]scopolamine from human recombinant muscarinic receptor M1 expressed in CHO cell membrane
Examples of compounds with documented pIC50 follow.
Schema: pIC50 number; meaning minus log10 of the concentration expressed in molar units.

CC#CCn1c(N2CCC[C@@H](N)C2)nc2c(C)nn(Cc3nc(C)c4ccccc4n3)c(=O)c21: 7.03

Task: Write down the reported pIC50 of CC#CCn1c(N2CCC[C@@H](N)C2)nc2cnn(Cc3nc(C)c4ccccc4n3)c(=O)c21 , test system: UniProt P11229.
Output: 5.92

----------
- ASSAY_DETAILS: Oral bioavailability in rat
- Assay type: ADME, organism-based
- CONDITION_INFO: in vivo
ENDPOINT_NAME: bioavailability (%)
Just the number please, in %, no unit attached.

Task: Entry CC#CCn1c(N2CCC[C@@H](N)C2)nc2cnn(Cc3nc(C)c4ccccc4n3)c(=O)c21 has what bioavailability?
Output: 15

----------
- SYSTEM: Muscarinic acetylcholine receptor M1 (Homo sapiens)
- Sequence (P11229 whole entry): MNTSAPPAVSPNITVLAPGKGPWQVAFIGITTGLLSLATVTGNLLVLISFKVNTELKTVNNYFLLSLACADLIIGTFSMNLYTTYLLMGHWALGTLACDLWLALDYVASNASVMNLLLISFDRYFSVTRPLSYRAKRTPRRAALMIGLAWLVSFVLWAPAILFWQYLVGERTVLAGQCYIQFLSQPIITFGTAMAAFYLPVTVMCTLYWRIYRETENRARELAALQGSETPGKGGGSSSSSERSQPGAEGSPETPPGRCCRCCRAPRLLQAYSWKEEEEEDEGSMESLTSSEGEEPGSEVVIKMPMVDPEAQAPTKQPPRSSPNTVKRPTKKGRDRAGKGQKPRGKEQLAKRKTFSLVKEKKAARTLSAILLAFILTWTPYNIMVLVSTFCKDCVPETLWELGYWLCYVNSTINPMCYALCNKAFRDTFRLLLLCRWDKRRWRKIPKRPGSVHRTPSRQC
- ASSAY_DETAILS: Displacement of [N-methyl-3H]scopolamine from human recombinant muscarinic receptor M1 expressed in CHO cell membrane
Examples of molecules with documented IC50 follow.

Known IC50 results, listed for orientation:
CC#CCn1c(NCCN)nc2cnn(Cc3nc(C)c4ccccc4n3)c(=O)c21: > 5 µM
CC#CCn1c(NC[C@H](C)N)nc2cnn(Cc3nc(C)c4ccccc4n3)c(=O)c21: > 5 µM

Field: next molecule
Task: Entry CC#CCn1c(N2CCC[C@@H](N)C2)nc2cnn(CC3=Nc4ccccc4Oc4ccccc43)c(=O)c21 has what IC50?
Output: > 5 µM
